This listing pairs compounds with measured inhibition.
Biological target: Sodium-dependent serotonin transporter (Homo sapiens, UniProt P31645)
Sequence (P31645 whole entry, looked up): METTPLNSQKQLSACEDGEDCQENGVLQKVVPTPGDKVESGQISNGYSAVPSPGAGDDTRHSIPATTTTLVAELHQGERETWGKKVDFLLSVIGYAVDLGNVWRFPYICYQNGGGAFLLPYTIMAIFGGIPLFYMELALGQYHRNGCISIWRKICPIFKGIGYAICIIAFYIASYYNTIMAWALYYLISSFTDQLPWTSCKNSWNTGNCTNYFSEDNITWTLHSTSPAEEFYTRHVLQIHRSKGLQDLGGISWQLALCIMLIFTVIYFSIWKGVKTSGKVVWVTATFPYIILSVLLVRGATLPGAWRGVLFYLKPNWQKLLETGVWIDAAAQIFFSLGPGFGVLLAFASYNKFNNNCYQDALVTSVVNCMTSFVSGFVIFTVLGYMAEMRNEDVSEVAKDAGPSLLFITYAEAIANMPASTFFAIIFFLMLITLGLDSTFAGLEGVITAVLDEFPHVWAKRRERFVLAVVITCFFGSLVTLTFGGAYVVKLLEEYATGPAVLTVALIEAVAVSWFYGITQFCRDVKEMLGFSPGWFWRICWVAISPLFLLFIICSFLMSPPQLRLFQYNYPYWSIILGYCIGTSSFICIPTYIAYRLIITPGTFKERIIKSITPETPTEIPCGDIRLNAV
Details: HEK293, at 0.1 µM
A number alone suffices; assume %.

COMPOUND	UNIT INFO	inhibition
Fc1ccc(C(CC2CNC2)Oc2ccc(OC(F)(F)F)cc2)cc1F (configuration not stated)	%	83

[ask] State, in one line, measured inhibition of Fc1ccccc1OC(CC1CNC1)c1ccc(Cl)c(Cl)c1 (configuration not stated)
[reply] 59

[ask] State, in one line, measured inhibition of Cc1ccccc1OC(CC1CNC1)c1ccccc1 (configuration not stated)
[reply] 100

[ask] State, in one line, measured inhibition of c1ccc(OC(CC2CNC2)c2ccc3ccccc3c2)cc1 (configuration not stated)
[reply] 56

[ask] State, in one line, measured inhibition of Fc1ccc(C(CC2CNC2)Oc2ccccc2Cl)cc1F (configuration not stated)
[reply] 86

[ask] State, in one line, measured inhibition of Fc1cc(C(CC2CNC2)Oc2ccccc2)ccc1Cl (configuration not stated)
[reply] 80

[ask] State, in one line, measured inhibition of Fc1cc(C(CC2CNC2)Oc2ccccc2F)ccc1Cl (configuration not stated)
[reply] 77

[ask] State, in one line, measured inhibition of Cc1cccc(OC(CC2CNC2)c2ccc(Cl)c(F)c2)c1 (configuration not stated)
[reply] 100

[ask] State, in one line, measured inhibition of Clc1ccccc1OC(CC1CNC1)c1ccc2ccccc2c1 (configuration not stated)
[reply] 25

[ask] State, in one line, measured inhibition of Clc1ccc(OC(CC2CNC2)c2ccc(Cl)c(Cl)c2)cc1Cl (configuration not stated)
[reply] 21

[ask] State, in one line, measured inhibition of c1ccc(OC(CC2CNC2)c2ccccc2)cc1 (configuration not stated)
[reply] 66

[ask] State, in one line, measured inhibition of Fc1ccc(OC(CC2CNC2)c2ccc(Cl)c(Cl)c2)cc1 (configuration not stated)
[reply] 64

* * *

This listing pairs compounds with measured remaining at 0.5 h, 1 µM.
Experiment: Stability in human liver microsomes assessed as compound remaining at 1 uM after 30 mins by LC/MS analysis
Format: ADME
Settings: read-out: Stability
A number alone suffices; assume %.

COMPOUND	RECORDED METRIC	VALUE
Clc1ccc(C(CC2CNC2)Oc2ccccc2)cc1Cl (stereo not drawn)	remaining at 0.5 h, 1 µM	67
Fc1cc(C(CC2CNC2)Oc2ccccc2Cl)ccc1Cl (stereo not drawn)	remaining at 0.5 h, 1 µM	89

Could you now consider this next compound?
[ask] State, in one line, measured remaining at 0.5 h, 1 µM of Fc1cc(C(CC2CNC2)Oc2ccccc2F)ccc1Cl (stereo not drawn)
[reply] 71

* * *

Molecular target: Sodium-dependent serotonin transporter (Homo sapiens, UniProt P31645)
Settings: HEK293, at 0.1 µM
RECORDED METRIC: inhibition (%)
A number alone suffices; assume %.

Recorded results for 5 compounds are shown here.
COMPOUND	UNIT INFO	inhibition
Fc1ccc(OC(CC2CNC2)c2ccc(Cl)c(Cl)c2)cc1F (stereo not drawn)	%	31
Fc1ccc(C(CC2CNC2)Oc2ccc(Cl)cc2)cc1F (stereo not drawn)	%	49
FC(F)(F)Oc1ccccc1OC(CC1CNC1)c1ccc(Cl)c(Cl)c1 (stereo not drawn)	%	16
Cc1ccccc1OC(CC1CNC1)c1ccc(Cl)c(Cl)c1 (stereo not drawn)	%	25
Clc1ccc(OC(CC2CNC2)c2ccc(Cl)c(Cl)c2)cc1 (stereo not drawn)	%	41

[ask] State, in one line, measured inhibition of Clc1cccc(OC(CC2CNC2)c2ccc(Cl)c(Cl)c2)c1 (stereo not drawn)
[reply] 35

[ask] State, in one line, measured inhibition of Cc1ccccc1OC(CC1CNC1)c1ccc(Cl)c(F)c1 (stereo not drawn)
[reply] 94

[ask] State, in one line, measured inhibition of Cc1cccc(OC(CC2CNC2)c2ccc(F)c(F)c2)c1 (stereo not drawn)
[reply] 100
